Data credit: PubChem BioAssay (NCI)

System: CAKI-1 renal
Assay: NCI tumour cell line growth inhibition, 48 h
OBSERVATION TYPE: TGI

Examples with answers:
- MOLECULE: "O=[N+]([O-])c1ccc(-n2nc3ccc4c(no[n+]4[O-])c3n2)cc1"
  TGI: "> 100 µM"
- MOLECULE: "CSc1nc2c(c(=O)n1C)N=C(c1ccc([N+](=O)[O-])cc1)CC(c1ccccc1)N2 (stereo not given)"
  TGI: "> 100 µM"
- MOLECULE: "COc1cc2c(c(OC)c1OC)-c1ccc(SC)c(=O)cc1[C@@H](O)CC2"
  TGI: "> 100 µM"

Record COc1ccccc1C(O)[C@@H]1C[C@@H]2[C@H]3CC[C@@](C)([C@@H]2O1)C3(C)C (stereo not given in full) . Reported TGI: 56.4 µM

Record N#CC(C(=O)/C(=N\NC(N)=O)C(C#N)c1ccccc1)c1ccccc1 (stereo not given) . Reported TGI: > 100 µM

Record "COc1ccc(OC)c2c1C=CC(Br)=CC2" . Reported TGI: 0.913 µM

Record "CC(C)=CCC[C@@H](C)C1=C(O)C(Nc2ccccc2Cl)=C(C)C(=O)C1=O" . Reported TGI: > 55 µM

Record "Cc1ccc2nc(C(C)C)c(=O)[nH]c2c1" . Reported TGI: > 100 µM

Record CC(C)C1NC(=O)CC(c2ccccc2)N(N=O)C1c1ccccc1 (stereo not given) . Reported TGI: > 100 µM

Record CC1=CC[C@@]2(C)CC[C@](O)(C(C)C)C2C(OC(=O)c2ccccc2)C1 (stereo not given in full) . Reported TGI: 44.9 µM
